procedure summary: UPA solubility as a function of pH
Assay type: physicochemical
assay setup: pH 1.2, simulated gastric fluid
parameter: solubility (mg/mL)

compound="CC(=O)O[C@]1(C(C)=O)CCC2C3CCC4=CC(=O)CCC4=C3[C@@H](c3ccc(N(C)C)cc3)C[C@@]21C (stereo partly shown) [UPA]" parameter=solubility units_of_measure=mg/mL endpoint_result=22.7

###

procedure summary: UPA solubility as a function of pH
Format: physicochemical
assay setup: pH 6.8, aqueous buffer
parameter: solubility (µg/mL)

compound="CC(=O)O[C@]1(C(C)=O)CCC2C3CCC4=CC(=O)CCC4=C3[C@@H](c3ccc(N(C)C)cc3)C[C@@]21C (stereo partly shown)" endpoint_result=5
